Each entry below carries its reported IC50.
System: PANC-08-13;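 further: cell growth inhibition, measured with a cell viability assay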
Experiment: cells
Format: functional, cell-based
Conditions: Homo sapiens
Description: SANGER: Inhibition of human PANC-08-13 cell growth in a cell viability assay.
recorded-endpoint: IC50 (µM)

>>> value_measured("CO[C@@]12[C@H](COC(N)=O)C3=C(C(=O)C(C)=C(N)C3=O)N1C[C@@H]1N[C@@H]12")
2.4
>>> value_measured("NC(=O)c1ncn([C@@H]2O[C@H](COP(=O)(O)O)[C@@H](O)[C@H]2O)c1N")
1300
>>> value_measured("CC[C@]1(O)C[C@@H]2CN(CCc3c([nH]c4ccccc34)[C@@](C(=O)OC)(c3cc4c(cc3OC)N(C)[C@H]3[C@@](O)(C(=O)OC)[C@H](OC(C)=O)[C@]5(CC)C=CCN6CC[C@]43[C@@H]65)C2)C1")
0.0615
